Source of measurements: ChEMBL document CHEMBL1201862

System: HL-60
experiment: NCI tumour cell line growth inhibition, 48 h
Calls of active or inactive are those of the source. No stated cut-off is given here; in the data, active = GI50 up to about 1.1 µM and inactive = higher.
reported.metric: GI50

Here are 6 molecules together with their reported answers.
molecule="N#CC1=C(N)Nc2nc3ccccc3n2C1c1ccccc1 (centres undefined)" target_desc=HL-60 reading="> 100 µM (inactive)"
molecule="Cc1cc2c(c(/C=N/c3ccc([N+](=O)[O-])cc3)c1)OC1(C=C2)Oc2ccccc2C(=O)N1C (centres undefined)" target_desc=HL-60 reading="23.2 µM (inactive)"
molecule=CCN(CC)C(=O)c1c(Cl)cc(N(CC)CC)oc1=O target_desc=HL-60 reading="> 100 µM (inactive)"
molecule="O=C(c1ccc(Cl)cc1)N1N=C(c2ccc(Cl)cc2)CC1(O)c1cc(F)c(Cl)cc1Cl (centres undefined)" target_desc=HL-60 reading="21.2 µM (inactive)"
molecule=CN1CCN(Cn2nc(COc3ccccc3Cl)n(/N=C/c3ccc(-c4ccc(Cl)cc4Cl)o3)c2=S)CC1 target_desc=HL-60 reading="24.8 µM (inactive)"
molecule=COc1cccc(CCN2CCN(CCCc3ccccc3)CC2)c1 target_desc=HL-60 reading="61.4 µM (inactive)"

Hey, quick one: what's GI50 for each of these?
1. Cc1ccc(Sc2cc([N+](=O)[O-])cc(Sc3ccc(C)cc3)c2Sc2ccc(C)cc2)cc1
2. CCOC(=O)C(CCc1ncnc2c1ncn2Cc1ccccc1)(CCc1ncnc2c1ncn2Cc1ccccc1)C(=O)OCC
3. COC1(OC)CC2C(=O)N(Cc3ccccc3)C1C=C2S(=O)(=O)c1ccccc1 (centres undefined)

Data returned:
1: > 100 µM (inactive); 2: 38.3 µM (inactive); 3: 11.7 µM (inactive)

====

Test system: A498
experiment: NCI tumour cell line growth inhibition, 48 h
The source made the active and inactive calls. No stated cut-off is given here; in the data, active = GI50 up to about 1.1 µM and inactive = higher.
// one of yes (1) for active, no (0) for inactive, no free text

# example entries with known answers
molecule="COS(=O)c1cc(Cl)cc(Cl)c1OC(=O)CSSCC(=O)Oc1c(Cl)cc(Cl)cc1S(=O)OC (stereo unspecified)" cat="no (0)"
molecule=O=S1(=O)c2ccccc2N(c2ccccc2)c2nnnn21 cat="no (0)"
molecule=CC(C)(C)c1cc2c(O)c(c1)COCc1cc(C(C)(C)C)cc(c1O)COCc1cc(C(C)(C)C)cc(c1O)COC2 cat="no (0)"
molecule=[C-]#[N+]C(=C\c1ccc(O)cc1)/C(=C/c1ccc(O)cc1)[N+]#[C-] cat="no (0)"
molecule="Cc1coc2c1CC1OC1(C)CCC1OC1(C)C2 (stereo unspecified)" cat="no (0)"
molecule="COc1cc2c(cc1Oc1c(Oc3c(O)c(OC)cc4c3C(CC(C)C)N(C)CC4)c(OC)cc3c1C(CC(C)C)N(C)CC3)C(CC(C)C)N(C)CC2 (stereo unspecified)" cat="yes (1)"
molecule=CCN(CC)C(=S)SS(=O)(=O)c1ccc(N)cc1 cat="no (0)"
molecule=CCO/N=C(/CC)c1ccc(Br)s1 cat="no (0)"
molecule=C=CC(C)(C)c1cc([C@@H]2COc3cc(O)ccc3C2=O)c(O)c(OC)c1OC cat="no (0)"
molecule="O=C(O)C(F)(OC(F)(F)C(F)(F)C(F)(F)F)C(F)(F)F (stereo unspecified)" cat="no (0)"

Data request: Hi, sorry to bother you, what did the test record for N#Cc1c(-c2ccc(Cl)cc2)c2c(n(C3OC(CO)C(O)C(O)C3O)c1=S)CCCC2 (stereo unspecified) ?
Data returned: no (0)

Data request: Please do the same for O=C1CC(CC(O)C(O)C(O)CO)CC(=O)N1 (stereo unspecified) as well.
Data returned: no (0)

Data request: Please do the same for COC(=O)C1=C(N)C2=C(N)Oc3ccccc3C2CC1=C(C#N)C#N (stereo unspecified) as well.
Data returned: no (0)

Data request: Please do the same for `Cc1cc(NC[C@H](O)[C@H](O)[C@H](O)CO)c(Sc2cc(=O)[nH]c(=O)[nH]2)cc1C` as well.
Data returned: no (0)

Data request: Please do the same for COC1(OC)CC2C(=O)N(Cc3ccccc3)C1C=C2S(=O)(=O)c1ccccc1 (stereo unspecified) as well.
Data returned: no (0)

Data request: Please do the same for `O=C(Cc1nc2ccccc2o1)C(=O)Nc1ccc(Cl)cc1Cl` as well.
Data returned: no (0)

====

Tested on: SF-268
experiment: NCI tumour cell line growth inhibition, 48 h
Active and inactive are the calls of the source. Rule as the data show it: active = GI50 up to about 1.1 µM and inactive = higher.
reported.metric: GI50

Here are 5 compounds together with their reported answers.
compound=C=CCN1C(=O)/C(=C\c2cc(C(C)(C)C)c(O)c(C(C)(C)C)c2)NC1=S reading="36.1 µM (inactive)"
compound=C/C(CC(=O)NCCc1ccccc1)=N\NS(=O)(=O)c1ccc(C)cc1 reading="> 100 µM (inactive)"
compound=NNC(=O)COc1nc(-c2cccs2)nc2ccc(I)cc12 reading="20.8 µM (inactive)"
compound="OC1CSc2nc3ccccc3n2C1 (stereo unspecified)" reading="> 100 µM (inactive)"
compound="CCc1cccc(C)c1N1C(=O)C(=O)C(c2nc3ccccc3o2)/C(=N/NC(=S)NN)C1=O (stereo unspecified)" reading="> 100 µM (inactive)"

Hey, quick one: what's GI50 for each of these?
1. O=C1C(Cl)C(c2cccc(Br)c2)N1c1c(O)c(Cl)cc(Br)c1Cl (stereo unspecified)
2. CC(C)NC(=O)OCc1c(COC(=O)NC(C)C)n(C)c2c1ccc1ccccc12
3. CC(=O)OCC1OC(n2c(-c3ccc(N)cc3)cc(-c3ccco3)c(C#N)c2=O)C(OC(C)=O)C(OC(C)=O)C1OC(C)=O (stereo unspecified)
4. C#CCn1c2c(c3ccccc3c1=O)C(=O)c1ccccc1-2
5. O=C(c1ccc(Cl)cc1)N1N=C(c2ccc(Cl)cc2)CC1(O)c1cc(F)c(Cl)cc1Cl (stereo unspecified)

Data returned:
14.8 µM (inactive)
1.9 µM (inactive)
11.5 µM (inactive)
14 µM (inactive)
47.4 µM (inactive)

Hey, quick one: what's GI50 for each of these?
1. N#C/C(=C\c1ccc2[nH]ccc2c1)C(=O)NCCCCNC(=O)/C(C#N)=C/c1ccc2[nH]ccc2c1
2. NC(c1ccccc1)(C(F)(F)F)P1(=O)OC(=O)c2ccccc2O1 (stereo unspecified)
3. CC(=O)NC(CCCCNC(=O)OCc1ccccc1)C(=O)NCc1ccccc1 (stereo unspecified)
4. Nc1ccc(C(=O)NN2C(=O)C(Cl)C2c2ccccc2)cc1 (stereo unspecified)
5. O=c1sc2c(s1)-c1sc(=O)sc1SS2

Data returned:
1. > 31.6 µM (inactive)
2. > 100 µM (inactive)
3. > 100 µM (inactive)
4. > 100 µM (inactive)
5. > 100 µM (inactive)

Hey, quick one: what's GI50 for each of these?
1. NC(=O)c1ncn(C2OC(CO)C(O)C2O)c1NC=O (stereo unspecified)
2. Cc1ccc2c(c1)C(=O)c1ccc(C)nc1C2=O
3. CN/N=C(/C=C/c1ccccc1)C(C)C
4. CC1SCc2nc3ccccc3n21 (stereo unspecified)
5. N/C(=N\O)N/N=C\c1c2ccccc2c(Cl)c2ccccc12
6. N#CC1=C(N)Nc2nc3ccccc3n2C1c1ccccc1 (stereo unspecified)

Data returned:
> 100 µM (inactive)
34.9 µM (inactive)
> 100 µM (inactive)
> 100 µM (inactive)
7.5 µM (inactive)
46.7 µM (inactive)

====

System: NCI-H522
experiment: NCI tumour cell line growth inhibition, 48 h
Active and inactive are the calls of the source. Rule as the data show it: active = GI50 up to about 1.1 µM and inactive = higher.
// one of 1 (active), -1 (inactive), no free text

# example entries with known answers
molecule="COc1cc2c(cc1OC)C1CN3C(=O)CCC3C(O)C1c1cc(OC)c(OC)cc1-2 (stereo not given)" cat=-1
molecule="CCCCCCCCCCCCOP(=O)(O)OP(=O)(O)OCC1OC(n2ccc(N)nc2=O)CC1O (stereo not given)" cat=-1
molecule="COc1cc2c(cc1Oc1c(Oc3c(O)c(OC)cc4c3C(CC(C)C)N(C)CC4)c(OC)cc3c1C(CC(C)C)N(C)CC3)C(CC(C)C)N(C)CC2 (stereo not given)" cat=1
molecule=COc1ccc(/C=C2\N=C3NC(=O)C(N4CCOCC4)=C(N)N3C2=O)cc1 cat=-1
molecule=C#CCn1c2c(c3ccccc3c1=O)C(=O)c1ccccc1-2 cat=-1

Data request: Hi, sorry to bother you, what did the test record for O=C(Nc1ccc([N+](=O)[O-])cc1[N+](=O)[O-])C(=O)C(C(=O)c1ccc2ccccc2c1)C1OC(=O)c2ccccc21 (stereo not given) ?
Data returned: -1

Data request: Please do the same for `O=S1(=O)c2ccccc2N(c2ccccc2)c2nnnn21` as well.
Data returned: -1

Data request: Please do the same for `N/C(=N\O)N/N=C\c1c2ccccc2c(Cl)c2ccccc12` as well.
Data returned: -1

Data request: Please do the same for `N#C/C(=C\c1ccccc1F)C(=O)c1ccccc1` as well.
Data returned: -1

Data request: Please do the same for `CCCCCCCCCCCC(=O)OCCOCCOCCOCCOCCOCc1ccc(OC)cc1` as well.
Data returned: -1

Data request: Please do the same for CNC(=O)C(C)NC(=O)C(Cc1ccccc1)NC(=O)OC(C)(C)C (stereo not given) as well.
Data returned: -1

Data request: Please do the same for O=C1C2CCCC2N1Cc1ccccc1 (stereo not given) as well.
Data returned: -1
